tested on: K4 kissing-loop RNA reporter; test: apparent KD of K4 kissing-loop reporter; higher = weaker reporter binding; conditions: Eterna round: R107; input ligand: arginine 13.2 mM
Measured apparent KD of K4 kissing-loop reporter by item
Report as: number unit

Worked set:
• AAGCAGUCACUCGACACCAUCGAAGAUGGGCGAGGACCGGUACGGCCGCCACUCGGAGUGAUGUUCUGAUGACUGCAAAAUAAAA [MatMod 9 - Jieux - Exclusion - Tryptophan A] = 60.1 nM
• ACAUGACGUGCGCCCGUCAUGAAACGUGCAAAGGAUAUUCCGUUUUGAAGAAGGUUGCGGUAGUGUAGUGAUGUUGCUCCGCCGU [theeternabot_sameState_KL_FMN_A_11] = 360 nM

Query: Report value: apparent KD of K4 kissing-loop reporter, system: K4 kissing-loop RNA reporter, sequence: CGGCCGUUAUGAGAUACCAGAGUGGCGACCAGUGAUGUUGGUCGACGCUUGCGGUCGUCUCUCCCUUGGCAGCUUAGUACGAAAG [Inisar];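 note: bound reporter read as fluorescence of individual clusters on recovered sequencing chips by microscopy, with normalized cluster intensities fitted with a binding model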
Reply: 88.2 nM

Data credit: the supplement of paper PMC9170038
